Kindly state pIC50 for each of the entries shown.
Target: Prostaglandin G/H synthase 1 (Bos taurus)
Sequence (O62664 whole entry): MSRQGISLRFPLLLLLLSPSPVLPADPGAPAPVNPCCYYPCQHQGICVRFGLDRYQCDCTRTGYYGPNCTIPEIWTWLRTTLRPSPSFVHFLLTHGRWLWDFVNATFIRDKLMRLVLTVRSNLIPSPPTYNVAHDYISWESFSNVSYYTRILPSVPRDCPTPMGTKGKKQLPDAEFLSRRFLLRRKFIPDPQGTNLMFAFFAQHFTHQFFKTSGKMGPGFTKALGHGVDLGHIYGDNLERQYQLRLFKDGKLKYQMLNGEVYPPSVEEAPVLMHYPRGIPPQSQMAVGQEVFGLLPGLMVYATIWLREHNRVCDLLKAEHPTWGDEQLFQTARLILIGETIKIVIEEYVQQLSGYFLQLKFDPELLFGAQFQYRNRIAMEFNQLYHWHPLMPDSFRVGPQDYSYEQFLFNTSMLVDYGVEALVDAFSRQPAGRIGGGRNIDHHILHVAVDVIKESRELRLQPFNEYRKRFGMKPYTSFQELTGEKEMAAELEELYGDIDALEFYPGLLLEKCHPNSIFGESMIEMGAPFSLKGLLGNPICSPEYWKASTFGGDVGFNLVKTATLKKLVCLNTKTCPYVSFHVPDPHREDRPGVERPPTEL
Lab note: report pIC50 as minus log10 of the concentration in molar units, number only.

In: Requested read-out: pIC50. Entry: Cc1cc(O)c(C2=NN(c3ccc(S(N)(=O)=O)cc3)C(c3ccc(Cl)cc3)C2)c(C)c1Cl (configuration not stated)
Out: 4.05

In: Entry to check: Cc1cc(O)c(C2=NN(c3ccc(S(N)(=O)=O)cc3)C(c3ccccc3O)C2)c(C)c1Cl (configuration not stated)
Out: 4.18
